Values compiled from patent US11208422B2.

Target: recombinant TASK-1 (Homo sapiens (Human), UniProt O14649)
Sequence (O14649 whole entry): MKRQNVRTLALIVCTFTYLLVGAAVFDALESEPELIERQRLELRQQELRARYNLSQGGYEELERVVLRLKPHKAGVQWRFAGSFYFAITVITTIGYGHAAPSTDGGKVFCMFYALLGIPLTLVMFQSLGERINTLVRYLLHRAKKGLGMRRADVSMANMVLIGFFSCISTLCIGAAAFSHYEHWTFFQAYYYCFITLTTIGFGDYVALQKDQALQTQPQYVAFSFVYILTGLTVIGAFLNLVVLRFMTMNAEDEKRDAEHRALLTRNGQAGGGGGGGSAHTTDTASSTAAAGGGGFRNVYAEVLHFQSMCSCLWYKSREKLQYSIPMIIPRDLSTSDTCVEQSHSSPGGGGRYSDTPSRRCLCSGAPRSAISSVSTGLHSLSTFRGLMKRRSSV
Assay: Inhibition of recombinant TASK-1 in stably transfected CHO cells (KCl-induced depolarization, voltage-sensitive dye, FLIPR)
Assay type: cell-based
Details: depolarization induced by 40 mM potassium chloride, some mean values from multiple determinations
pIC50: −log10 of the molar value.
Short version: pIC50 at least 6 is 1, less is -1.

| molecule | subjectOfTest | classAssignment |
| --- | --- | --- |
| O=C(c1ccccc1F)N1C2CCC1CN(Cc1c(-c3ccc(Cl)cc3)nc3ccccn13)CC2 (single isomer, unassigned) [Example 88] | recombinant TASK-1 (Homo sapiens (Human), UniProt O14649) | 1 |
| COc1cccc(C(=O)N2C3CCC2CN(Cc2c(-c4ccc(Cl)cc4)nc4ncccn24)CC3)n1 (single isomer, unassigned) [Example 87] | recombinant TASK-1 (Homo sapiens (Human), UniProt O14649) | -1 |
| COc1cccc(C(=O)N2C3CCC2CN(Cc2c(-c4ccc(C(C)C)cc4)nc4ncccn24)CC3)n1 (stereo not shown) [Example 105] | recombinant TASK-1 (Homo sapiens (Human), UniProt O14649) | -1 |
| COc1cccc(C(=O)N2C3CCC2CN(Cc2c(-c4ccc(Cl)cn4)nc4ccccn24)CC3)n1 (single isomer, unassigned) [Example 84] | recombinant TASK-1 (Homo sapiens (Human), UniProt O14649) | 1 |
| COc1cccc(C(=O)N2C3CCC2CN(Cc2c(-c4ccc(Cl)cc4)nc4ccccn24)CC3)n1 (racemic) [Example 70] | recombinant TASK-1 (Homo sapiens (Human), UniProt O14649) | 1 |
| COc1ccc(Cl)c(C(=O)N2CCC3CCC2CN3Cc2c(-c3ccc(Cl)cc3)nc3ccccn23)n1 (stereo not shown) [Example 28] | recombinant TASK-1 (Homo sapiens (Human), UniProt O14649) | 1 |
| O=C(c1cccc(OC(F)F)n1)N1CCC2CCC1CN2Cc1c(-c2ccc(Cl)cc2)nc2ncccn12 (stereo not shown) [Example 68] | recombinant TASK-1 (Homo sapiens (Human), UniProt O14649) | 1 |
| COc1cccc(C(=O)N2C3CCC2CN(Cc2c(-c4ccc(Cl)cc4)nc4ccccn24)CC3)n1 (single isomer, unassigned) [Example 91] | recombinant TASK-1 (Homo sapiens (Human), UniProt O14649) | 1 |
| COc1ccc(F)c(C(=O)N2CCC3CCC2CN3Cc2c(-c3ccc(Cl)cn3)nc3ccccn23)n1 (stereo not shown) | recombinant TASK-1 (Homo sapiens (Human), UniProt O14649) | -1 |
| COc1ccc(F)c(C(=O)N2CCC3CCC(C2)N3Cc2c(-c3ccc(C(C)C)cc3)nc3ncccn23)n1 (stereo not shown) [Example 58] | recombinant TASK-1 (Homo sapiens (Human), UniProt O14649) | -1 |
| Nc1nonc1C(=O)N1C2CCN(Cc3c(-c4ccc(Cl)cc4)nc4ncccn34)CC1COC2 (racemic) | recombinant TASK-1 (Homo sapiens (Human), UniProt O14649) | -1 |
| O=C(c1ccccc1F)N1CCC2CCC1CN2Cc1c(-c2ccc(Cl)cn2)nc2ccccn12 (stereo not shown) | recombinant TASK-1 (Homo sapiens (Human), UniProt O14649) | -1 |
| COc1cccc(C(=O)N2C3CCC2CN(Cc2c(-c4ccc(Cl)cc4)nc4ccccn24)CC3)n1 (single isomer, unassigned) [Example 90] | recombinant TASK-1 (Homo sapiens (Human), UniProt O14649) | 1 |
| O=C(c1cccc(OC(F)F)n1)N1CCC2CCC1CN2Cc1c(-c2ccc(Cl)cc2)nc2ncccn12 (stereo not shown) [Example 67] | recombinant TASK-1 (Homo sapiens (Human), UniProt O14649) | -1 |
| COc1ccc(F)c(C(=O)N2CCC3CCC2CN3Cc2c(-c3ccc(Cl)cc3)nc3ccccn23)n1 (stereo not shown) [Example 38] | recombinant TASK-1 (Homo sapiens (Human), UniProt O14649) | 1 |
| COc1ccc(F)c(C(=O)N2CCC3CCC2CN3Cc2c(-c3ccc(Cl)cc3)nc3ncccn23)n1 (stereo not shown) [Example 33] | recombinant TASK-1 (Homo sapiens (Human), UniProt O14649) | -1 |
| O=C(c1ccccc1F)N1C2CCC1CN(Cc1c(-c3ccc(Cl)cc3)nc3ncccn13)CC2 (single isomer, unassigned) [Example 80] | recombinant TASK-1 (Homo sapiens (Human), UniProt O14649) | -1 |
| COc1cccc(C(=O)N2CCC3CCC(C2)N3Cc2c(-c3ccc(C(C)C)cc3)nc3ncccn23)n1 (stereo not shown) [Example 55] | recombinant TASK-1 (Homo sapiens (Human), UniProt O14649) | -1 |
| COc1ccc(F)c(C(=O)N2C3CCC2CN(Cc2c(-c4ccc(Cl)cn4)nc4ccccn24)CC3)n1 (single isomer, unassigned) [Example 16] | recombinant TASK-1 (Homo sapiens (Human), UniProt O14649) | -1 |
| COc1cccc(C(=O)N2C3CCC2CN(Cc2c(-c4ccc(Cl)cc4)nc4ncccn24)CC3)n1 (single isomer, unassigned) [Example 86] | recombinant TASK-1 (Homo sapiens (Human), UniProt O14649) | 1 |
| CC(C)c1ccc(-c2nc3ncccn3c2CN2C3CCC2CN(C(=O)c2cccc(OC(F)F)n2)CC3)cc1 (stereo not shown) [Example 61] | recombinant TASK-1 (Homo sapiens (Human), UniProt O14649) | -1 |
| CC(C)c1ccc(-c2nc3ncccn3c2CN2C3CCC2CN(C(=O)c2ccccc2F)CC3)cc1 (stereo not shown) [Example 64] | recombinant TASK-1 (Homo sapiens (Human), UniProt O14649) | -1 |
| COc1cccc(C(=O)N2CCC3CCC(C2)N3Cc2c(-c3ccc(C(C)C)cc3)nc3ncccn23)n1 (stereo not shown) [Example 60] | recombinant TASK-1 (Homo sapiens (Human), UniProt O14649) | -1 |

====

Target: recombinant TASK-1 (Homo sapiens (Human), UniProt O14649)
Test: Inhibition of recombinant TASK-1 in stably transfected CHO cells (KCl-induced depolarization, voltage-sensitive dye, FLIPR)
Format: cell-based
Details: depolarization induced by 40 mM potassium chloride, some mean values from multiple determinations
# if measured IC50 < 400 nM: y  # else: n

| compound | subjectOfTest | classAssignment |
| --- | --- | --- |
| COc1cccc(C(=O)N2CCC3CCC2CN3Cc2c(-c3ccc(Cl)cc3)nc3ncccn23)n1 (stereo not drawn) [Example 32] | recombinant TASK-1 (Homo sapiens (Human), UniProt O14649) | y |
| COc1ccc(F)c(C(=O)N2C3CCC2CN(Cc2c(-c4ccc(Cl)cn4)nc4ccccn24)CC3)n1 (single isomer, unassigned) [Example 15] | recombinant TASK-1 (Homo sapiens (Human), UniProt O14649) | y |
| O=C(c1ccccc1F)N1CCC2CCC1CN2Cc1c(-c2ccc(Cl)cc2)nc2ncccn12 (stereo not drawn) [Example 25] | recombinant TASK-1 (Homo sapiens (Human), UniProt O14649) | n |
| CC(C)c1ccc(-c2nc3ncccn3c2CN2CC3CCC2CCN3C(=O)c2cccc(OC(F)F)n2)cc1 (stereo not drawn) [Example 45] | recombinant TASK-1 (Homo sapiens (Human), UniProt O14649) | n |
| CC(C)c1ccc(-c2nc3ncccn3c2CN2CC3CCC2CCN3C(=O)c2cccc(OC(F)F)n2)cc1 (stereo not drawn) [Example 51] | recombinant TASK-1 (Homo sapiens (Human), UniProt O14649) | n |
| COc1ccc(F)c(C(=O)N2CCC3CCC2CN3Cc2c(-c3ccc(C(C)C)cc3)nc3ncccn23)n1 (stereo not drawn) | recombinant TASK-1 (Homo sapiens (Human), UniProt O14649) | n |
| O=C(c1ccccc1F)N1CCC2CCC1CN2Cc1c(-c2ccc(Cl)cn2)nc2ncccn12 (stereo not drawn) | recombinant TASK-1 (Homo sapiens (Human), UniProt O14649) | n |
| COc1ccc(Cl)c(C(=O)N2C3CCC2CN(Cc2c(-c4ccc(Cl)cn4)nc4ccccn24)CC3)n1 (racemic) | recombinant TASK-1 (Homo sapiens (Human), UniProt O14649) | y |

====

Biological target: recombinant TASK-1 (Homo sapiens (Human), UniProt O14649)
Test: Inhibition of recombinant TASK-1 in stably transfected CHO cells (KCl-induced depolarization, voltage-sensitive dye, FLIPR)
Format: cell-based
Details: depolarization induced by 40 mM potassium chloride, some mean values from multiple determinations
measuredEndpoint: IC50 (µM)

| compound | observedValue |
| --- | --- |
| COc1ccc(Cl)c(C(=O)N2CCC3CCC2CN3Cc2c(-c3ccc(Cl)cc3)nc3ccccn23)n1 (stereo not shown) [Example 39] | 0.37 |
| COc1ccc(F)c(C(=O)N2CCC3CCC(C2)N3Cc2c(-c3ccc(C(C)C)cc3)nc3ncccn23)n1 (stereo not shown) [Example 53] | 1.3 |
| COc1ccc(Cl)c(C(=O)N2CCC3CCC2CN3Cc2c(-c3ccc(C(C)C)cc3)nc3ncccn23)n1 (stereo not shown) [Example 50] | 2.5 |
| Nc1nonc1C(=O)N1CCC2CCC1CN2Cc1c(-c2ccc(Cl)cc2)nc2ncccn12 (stereo not shown) [Example 24] | 3.1 |
| COc1ccc(F)c(C(=O)N2C3CCC2CN(Cc2c(-c4ccc(C(C)C)cc4)nc4ncccn24)CC3)n1 (stereo not shown) [Example 102] | 0.17 |
| COc1cccc(C(=O)N2C3CCC2CN(Cc2c(-c4ccc(C(C)C)cc4)nc4ncccn24)CC3)n1 (stereo not shown) [Example 104] | 0.6 |
| Nc1nonc1C(=O)N1CCC2CCC1CN2Cc1c(-c2ccc(Cl)cc2)nc2ccccn12 (stereo not shown) [Example 40] | 3.3 |
